Target: A1 AR (Homo sapiens, UniProt P30542)
Sequence (P30542 1-326): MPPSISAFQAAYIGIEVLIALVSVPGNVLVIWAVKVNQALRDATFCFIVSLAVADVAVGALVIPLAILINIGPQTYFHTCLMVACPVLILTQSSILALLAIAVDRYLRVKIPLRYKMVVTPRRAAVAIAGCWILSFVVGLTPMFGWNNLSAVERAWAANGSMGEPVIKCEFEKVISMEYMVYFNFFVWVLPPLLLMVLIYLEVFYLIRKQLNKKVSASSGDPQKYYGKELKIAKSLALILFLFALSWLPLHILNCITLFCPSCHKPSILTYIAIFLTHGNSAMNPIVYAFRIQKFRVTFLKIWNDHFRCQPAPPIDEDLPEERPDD
MEASURED_PARAMETER: Ki (µM)

{"MOLECULE": "NCCNC(=O)Cc1ccc(NC(=O)Cc2ccc(Nc3ncnc4c3ncn4[C@@H]3O[C@H](CO)[C@@H](O)[C@H]3O)cc2)cc1 [Compound 1, reference compound]", "OBS_VALUE": 0.0104}
